Assay: Water solubility approximation
Format: physicochemical
Conditions: PBS with 0.01% Polysorbate 20, aqueous with cosolvent or surfactant or cyclodextrin, kinetic from dmso stock; PBS pH 7.4, 0.01% Polysorbate 20, 1% DMSO; precipitation at 650 nm; read-out: w.s. (water solubility)
log10 of solubility for assorted compounds
measurement_kind: log10 of solubility (log10 of the value in µM)

{"compound": "CCC(Cc1ccc(C(=O)NCc2ccccc2OC(F)(F)F)cc1)C(=O)O (stereo not drawn)", "log10 of solubility": 2.70}
{"compound": "O=C(O)CCc1ccc(C(=O)NCc2ccccc2C(F)(F)F)cc1 [Compound 16c]", "log10 of solubility": 2.70}
{"compound": "C/C(=C\\c1ccc(C(=O)NCc2ccccc2C(F)(F)F)cc1)C(=O)O [Compound 17d]", "log10 of solubility": 2.70}
{"compound": "CCOC(=O)C(CC)Cc1ccc(C(=O)NCc2ccccc2Br)cc1 (stereo not drawn)", "log10 of solubility": 1.40}
{"compound": "CCOC(=O)CCc1ccc(C(=O)NCc2ccccc2C(F)(F)F)cc1 [Compound 16b]", "log10 of solubility": 0.70}
{"compound": "CC/C(=C\\c1ccc(C(=O)NCc2ccc(Cl)cc2)cc1)C(=O)O [Compound 11d]", "log10 of solubility": 2.00}
{"compound": "O=C(NCc1ccccc1C(F)(F)F)c1ccc(-c2nnn[nH]2)cc1", "log10 of solubility": 2.70}
{"compound": "O=C(O)c1ccc(-c2ccc(C(=O)NCc3ccccc3C(F)(F)F)cc2)cc1", "log10 of solubility": 0.70}
{"compound": "CCOC(=O)/C=C/c1ccc(C(=O)NCc2ccccc2C(F)(F)F)cc1 [Compound 16a]", "log10 of solubility": 0.40}

###

IC50 for assorted compounds
Target: recombinant human sEH (Homo sapiens)
Sequence (P34913 1-555): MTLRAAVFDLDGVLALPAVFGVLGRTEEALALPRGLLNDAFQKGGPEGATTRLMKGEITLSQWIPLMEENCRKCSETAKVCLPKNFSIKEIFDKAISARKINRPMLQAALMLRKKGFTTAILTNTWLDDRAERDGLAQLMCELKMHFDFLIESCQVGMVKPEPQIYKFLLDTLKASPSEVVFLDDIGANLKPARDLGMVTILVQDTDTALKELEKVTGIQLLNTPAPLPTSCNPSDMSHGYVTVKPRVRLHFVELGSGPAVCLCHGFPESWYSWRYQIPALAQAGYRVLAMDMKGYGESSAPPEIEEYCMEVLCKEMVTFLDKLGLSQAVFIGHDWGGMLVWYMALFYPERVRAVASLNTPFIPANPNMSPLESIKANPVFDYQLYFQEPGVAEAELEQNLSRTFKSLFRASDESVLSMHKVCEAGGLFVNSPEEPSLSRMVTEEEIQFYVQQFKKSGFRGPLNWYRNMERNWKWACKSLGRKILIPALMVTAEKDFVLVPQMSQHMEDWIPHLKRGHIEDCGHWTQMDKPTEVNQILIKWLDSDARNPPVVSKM
Assay: biochemical
Details: read-out: sEH IC50 / inhibitory potency (unit inferred)
measurement_kind: IC50

{"compound": "N#Cc1ccc(C(=O)NCc2ccccc2C(F)(F)F)cc1 [Compound 27]", "observed_value": "64 nM"}
{"compound": "O=C(O)c1cccc(-c2ccc(C(=O)NCc3ccccc3C(F)(F)F)cc2)c1 [Compound 26]", "observed_value": "1000 nM"}

###

Assay: Water solubility approximation
Assay type: physicochemical
Conditions: PBS with 0.01% Polysorbate 20, aqueous with cosolvent or surfactant or cyclodextrin, kinetic from dmso stock; PBS pH 7.4, 0.01% Polysorbate 20, 1% DMSO; precipitation at 650 nm; read-out: w.s. (water solubility)
measurement_kind: solubility (µM)

{"molecule": "CCC(Cc1ccc(C(=O)NCc2ccc(OC)cc2)cc1)C(=O)O (stereo not shown) [Compound 10c]", "measurement_kind": "solubility", "readout_units": "µM", "observed_value": 500}
{"molecule": "O=C(NCc1ccccc1C(F)(F)F)c1ccc(CC(C(=O)O)c2ccccc2)cc1 (stereo not shown) [Compound 19c]", "measurement_kind": "solubility", "readout_units": "µM", "observed_value": 100}
{"molecule": "CCC/C(=C\\c1ccc(C(=O)NCc2ccccc2C(F)(F)F)cc1)C(=O)OCC [Compound 18a]", "measurement_kind": "solubility", "readout_units": "µM", "observed_value": 10}
{"molecule": "O=C(O)/C(=C/c1ccc(C(=O)NCc2ccccc2C(F)(F)F)cc1)c1ccccc1 [Compound 19d]", "measurement_kind": "solubility", "readout_units": "µM", "observed_value": 50}

###

Biological target: PPARγ (Homo sapiens, UniProt P37231)
Construct: expressed in transfected cells; host or cells: COS-7
Sequence (P37231 238-503): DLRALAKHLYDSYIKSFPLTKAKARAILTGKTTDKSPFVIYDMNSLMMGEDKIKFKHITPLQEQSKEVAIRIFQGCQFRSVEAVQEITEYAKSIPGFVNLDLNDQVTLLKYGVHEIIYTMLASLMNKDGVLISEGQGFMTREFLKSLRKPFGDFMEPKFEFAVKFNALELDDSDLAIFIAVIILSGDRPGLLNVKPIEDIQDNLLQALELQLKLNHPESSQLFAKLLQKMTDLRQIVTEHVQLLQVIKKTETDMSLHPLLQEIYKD
Test: cell-based
Format: cell-based
Conditions: i.a. = inactive
measurement_kind: EC50 PPARγ

{"compound": "CON(C)C(=O)/C=C/c1ccc(C(=O)NCc2ccccc2C(F)(F)F)cc1 [Compound 20]", "system_tested": "PPARγ (Homo sapiens, UniProt P37231)", "measurement_kind": "EC50 PPARγ", "observed_value": "i.a."}
{"compound": "O=C(NCc1ccccc1C(F)(F)F)c1ccc(-c2nnn[nH]2)cc1 [Compound 28]", "system_tested": "PPARγ (Homo sapiens, UniProt P37231)", "measurement_kind": "EC50 PPARγ", "observed_value": "i.a."}
{"compound": "CCOC(=O)C(CC)Cc1ccc(C(=O)NCc2ccccc2Br)cc1 (stereo not shown) [Compound 5b]", "system_tested": "PPARγ (Homo sapiens, UniProt P37231)", "measurement_kind": "EC50 PPARγ", "observed_value": "i.a."}

###

IC50 for assorted molecules
Biological target: recombinant human sEH (Homo sapiens)
Experiment: biochemical
Conditions: read-out: IC50 sEH (converted)
measurement_kind: IC50

{"molecule": "CC/C(=C\\c1ccc(C(=O)NCc2ccc(OC)cc2C(F)(F)F)cc1)C(=O)O [Compound 14d]", "observed_value": "0.4 µM"}
{"molecule": "CCOC(=O)C(Cc1ccc(C(=O)NCc2ccccc2C(F)(F)F)cc1)c1ccccc1 (stereo not shown) [Compound 19b]", "observed_value": "0.12 µM"}
{"molecule": "CCC(Cc1ccc(C(=O)NCc2ccccc2C(F)(F)F)cc1)C(=O)O (stereo not shown)", "observed_value": "1.6 µM"}
{"molecule": "C/C(=C\\c1ccc(C(=O)NCc2ccccc2C(F)(F)F)cc1)C(=O)O [Compound 17d]", "observed_value": "4.9 µM"}
{"molecule": "CCOC(=O)/C(=C/c1ccc(C(=O)NCc2ccccc2C(F)(F)F)cc1)CC", "observed_value": "0.063 µM"}
{"molecule": "CCC/C(=C\\c1ccc(C(=O)NCc2ccccc2C(F)(F)F)cc1)C(=O)O [Compound 18d]", "observed_value": "0.7 µM"}
{"molecule": "CCOC(=O)CCc1ccc(C(=O)NCc2ccccc2C(F)(F)F)cc1 [Compound 16b]", "observed_value": "0.11 µM"}
